# Organism: Homo sapiens
# assay-procedure: Selectivity ratio of EC50 for recombinant human alpha1A adrenergic receptor to EC50 for recombinant human beta3 adrenergic receptor
measured-attribute: Ratio EC50
Lab note: write the figure by itself, no unit.

• Cc1n[nH]c2cc(OCCNC[C@H](O)c3cccc(NS(=O)(=O)C(C)C)c3)ccc12 = 25

Recorded Ratio EC50 (compound "Cc1n[nH]c2cc(OCCNC[C@H](O)c3cccc(NS(C)(=O)=O)c3)ccc12" ): 10

Entry "Cc1n[nH]c2cc(OCCNC[C@H](O)c3cccc(NS(=O)(=O)C4CC4)c3)ccc12" — recorded Ratio EC50 = 29

According to the records, this compound "CCCS(=O)(=O)Nc1cccc([C@@H](O)CNCCOc2ccc3c(C)n[nH]c3c2)c1" displays Ratio EC50 of 25

Entry "CCc1n[nH]c2cc(OCCNC[C@H](O)c3cccc(NS(C)(=O)=O)c3)ccc12" , Ratio EC50 reported as 61

###

Emax at 0.5 h: recorded values
# target-or-test-system: Beta-2 adrenergic receptor (Homo sapiens, UniProt P07550)
# Sequence (P07550 whole entry): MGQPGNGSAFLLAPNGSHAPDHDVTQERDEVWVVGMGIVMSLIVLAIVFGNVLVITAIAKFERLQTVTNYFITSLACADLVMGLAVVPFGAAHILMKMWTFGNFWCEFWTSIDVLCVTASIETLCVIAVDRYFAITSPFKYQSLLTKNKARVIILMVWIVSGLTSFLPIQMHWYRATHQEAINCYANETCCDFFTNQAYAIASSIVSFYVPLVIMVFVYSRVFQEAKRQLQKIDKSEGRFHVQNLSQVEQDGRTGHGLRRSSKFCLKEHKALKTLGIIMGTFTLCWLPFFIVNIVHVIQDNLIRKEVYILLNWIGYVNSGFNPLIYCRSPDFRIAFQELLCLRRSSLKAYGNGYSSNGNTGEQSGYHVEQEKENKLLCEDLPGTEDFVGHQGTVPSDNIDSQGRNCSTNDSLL
# assay-procedure: Intrinsic activity at recombinant human beta2 adrenergic receptor assessed as accumulation of cyclic AMP after 30 mins relative to isoproterenol
Your answer is read as %, so omit the unit and give the number.

Reported Beta-2 adrenergic receptor (Homo sapiens, UniProt P07550) Emax at 0.5 h for item "Cc1n[nH]c2cc(OCCNC[C@H](O)c3cccc(NS(=O)(=O)C4CCC4)c3)ccc12" was 4

"Cc1n[nH]c2cc(OCCNC[C@H](O)c3cccc(NS(=O)(=O)c4ccccc4)c3)ccc12" on Beta-2 adrenergic receptor (Homo sapiens, UniProt P07550) gives Emax at 0.5 h = 0

The reported Beta-2 adrenergic receptor (Homo sapiens, UniProt P07550) Emax at 0.5 h of "CC(C)c1n[nH]c2cc(OCCNC[C@H](O)c3cccc(NS(C)(=O)=O)c3)ccc12" is 5.6

###

# target-or-test-system: UniProtKB P25100
# Sequence (P25100 whole entry): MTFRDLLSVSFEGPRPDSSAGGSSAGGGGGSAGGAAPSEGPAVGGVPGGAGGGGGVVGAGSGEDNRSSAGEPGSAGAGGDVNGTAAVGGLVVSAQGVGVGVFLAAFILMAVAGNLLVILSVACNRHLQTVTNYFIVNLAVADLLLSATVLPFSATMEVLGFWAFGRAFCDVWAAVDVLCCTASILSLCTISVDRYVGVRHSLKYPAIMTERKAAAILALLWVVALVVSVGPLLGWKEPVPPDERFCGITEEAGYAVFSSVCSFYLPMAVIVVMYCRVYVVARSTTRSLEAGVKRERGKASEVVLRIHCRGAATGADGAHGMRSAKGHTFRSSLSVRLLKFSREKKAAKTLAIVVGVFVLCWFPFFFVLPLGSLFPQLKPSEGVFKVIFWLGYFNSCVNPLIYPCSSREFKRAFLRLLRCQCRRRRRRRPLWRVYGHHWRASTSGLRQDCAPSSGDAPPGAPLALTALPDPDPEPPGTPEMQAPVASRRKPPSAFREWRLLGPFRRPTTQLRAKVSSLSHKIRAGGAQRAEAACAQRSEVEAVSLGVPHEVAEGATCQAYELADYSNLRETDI
# assay-procedure: Agonist activity at recombinant human alpha1D adrenergic receptor expressed in HEK293 cells after 6 hrs by NFAT-luciferase reporter gene assay
pEC50: −log10 of the molar value.
measured-attribute: pEC50

pEC50 measured on "Cc1n[nH]c2cc(OCCNC[C@H](O)c3cccc(NS(=O)(=O)C4CCC4)c3)ccc12" = < 5.00

###

# assay-procedure: Membrane permeability in MDCK cells at 50 uM after 60 mins by LC-MS/MS analysis
# Format: ADME, cell-based, Canis lupus familiaris
# applied-conditions: dog, read-out: permeability
Reported values of Papp at 1 h, 50 µM for individual entries
Provide only the numeric value, understood in ×10⁻⁶ cm/s.

Previously resolved entries follow.
* Cc1n[nH]c2cc(OCCNC[C@H](O)c3cccc(NS(=O)(=O)c4ccccc4)c3)ccc12 | 5.1
* Cc1n[nH]c2cc(OCCNC[C@H](O)c3cccc(NS(=O)(=O)C4CCC4)c3)ccc12 | 5
* CC(C)c1n[nH]c2cc(OCCNC[C@H](O)c3cccc(NS(C)(=O)=O)c3)ccc12 | 4.1

Turning to the following molecule.
For reference, reported Papp at 1 h, 50 µM for "Cc1n[nH]c2cc(OCCNC[C@H](O)c3cccc(NS(C)(=O)=O)c3)ccc12" stands at 2.4

###

# target-or-test-system: CYP2C8 (Homo sapiens)
# Sequence (P10632 whole entry): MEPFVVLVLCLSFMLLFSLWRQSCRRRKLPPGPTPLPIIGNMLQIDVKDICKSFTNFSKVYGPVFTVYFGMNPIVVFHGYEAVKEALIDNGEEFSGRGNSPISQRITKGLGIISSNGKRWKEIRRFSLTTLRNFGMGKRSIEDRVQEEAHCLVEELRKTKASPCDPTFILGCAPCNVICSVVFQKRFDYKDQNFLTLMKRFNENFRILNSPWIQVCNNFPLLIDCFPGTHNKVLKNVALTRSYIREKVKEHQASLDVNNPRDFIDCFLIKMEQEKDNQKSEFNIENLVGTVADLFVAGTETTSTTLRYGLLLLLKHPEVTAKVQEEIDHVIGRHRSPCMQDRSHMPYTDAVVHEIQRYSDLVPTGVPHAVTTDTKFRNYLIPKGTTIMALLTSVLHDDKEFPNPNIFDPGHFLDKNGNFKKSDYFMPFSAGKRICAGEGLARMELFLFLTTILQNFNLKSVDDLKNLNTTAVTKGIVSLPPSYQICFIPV
# assay-procedure: Inhibition of CYP2C8 (unknown origin) at 10 uM relative to control
# Type: ADME
measured-attribute: inhibition at 10 µM

// inhibition at 10 µM (CYP2C8 (Homo sapiens)) for "Cc1n[nH]c2cc(OCCNC[C@H](O)c3cccc(NS(=O)(=O)C4CCC4)c3)ccc12" = < 34%

###

# target-or-test-system: Beta-2 adrenergic receptor (Homo sapiens)
# assay-procedure: Agonist activity at recombinant human beta2 adrenergic receptor expressed in CHO cells assessed as accumulation of cyclic AMP after 30 mins
# Assay type: cell-based
measured-attribute: EC50

- Cc1n[nH]c2cc(OCCNC[C@H](O)c3cccc(NS(=O)(=O)C4CCC4)c3)ccc12: > 10 µM

// switching to the query compound
EC50 of "Cc1n[nH]c2cc(OCCNC[C@H](O)c3cccc(NS(=O)(=O)c4ccccc4)c3)ccc12" , assay on Beta-2 adrenergic receptor (Homo sapiens), is > 10 µM

###

# target-or-test-system: CYP2C19 (Homo sapiens)
# Sequence (P33261 whole entry): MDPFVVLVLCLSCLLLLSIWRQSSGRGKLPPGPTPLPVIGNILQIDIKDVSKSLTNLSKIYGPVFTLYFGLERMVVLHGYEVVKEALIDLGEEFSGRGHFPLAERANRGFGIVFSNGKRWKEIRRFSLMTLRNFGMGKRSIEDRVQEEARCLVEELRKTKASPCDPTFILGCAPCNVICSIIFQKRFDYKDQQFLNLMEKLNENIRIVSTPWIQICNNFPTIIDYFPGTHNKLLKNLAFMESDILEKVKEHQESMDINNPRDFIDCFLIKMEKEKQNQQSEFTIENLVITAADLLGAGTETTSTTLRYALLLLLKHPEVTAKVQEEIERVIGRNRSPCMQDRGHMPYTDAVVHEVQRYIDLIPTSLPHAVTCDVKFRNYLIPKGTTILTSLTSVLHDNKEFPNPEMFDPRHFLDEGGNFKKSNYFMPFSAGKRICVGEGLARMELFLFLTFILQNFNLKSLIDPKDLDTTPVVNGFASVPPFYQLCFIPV
# assay-procedure: Inhibition of CYP2C19 (unknown origin) at 10 uM relative to control
# Format: ADME
measured-attribute: inhibition at 10 µM

The compound identified as "Cc1n[nH]c2cc(OCCNC[C@H](O)c3cccc(NS(=O)(=O)C4CCC4)c3)ccc12" registered its inhibition at 10 µM at < 34%

###

Reported Emax is given for each of the following molecules.
# target-or-test-system: Alpha-1A adrenergic receptor (Homo sapiens, UniProt P35348)
# Sequence (P35348 whole entry): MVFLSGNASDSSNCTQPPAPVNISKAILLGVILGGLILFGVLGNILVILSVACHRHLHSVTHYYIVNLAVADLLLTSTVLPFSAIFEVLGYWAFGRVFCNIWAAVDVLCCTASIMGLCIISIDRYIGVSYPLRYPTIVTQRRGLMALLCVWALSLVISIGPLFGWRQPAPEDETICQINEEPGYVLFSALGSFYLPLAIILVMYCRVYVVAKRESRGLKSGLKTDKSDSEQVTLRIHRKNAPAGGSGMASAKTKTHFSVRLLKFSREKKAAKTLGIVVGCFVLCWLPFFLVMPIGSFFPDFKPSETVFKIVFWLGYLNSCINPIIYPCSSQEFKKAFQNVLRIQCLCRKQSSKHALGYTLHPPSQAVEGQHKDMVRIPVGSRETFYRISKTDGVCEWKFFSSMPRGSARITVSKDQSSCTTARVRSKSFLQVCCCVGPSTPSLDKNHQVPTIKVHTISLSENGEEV
# assay-procedure: Intrinsic activity at recombinant human alpha1A adrenergic receptor expressed in HEK293 cells assessed as intercellular Ca mobilization by Fura-2AM dye-based fluorescence assay relative to norepinephrine
# Format: cell-based
# applied-conditions: read-out: Intrinsic activity
// note: answer is a bare numeric in %

- Cc1n[nH]c2cc(OCCNC[C@H](O)c3cccc(NS(=O)(=O)C4CCC4)c3)ccc12: 0
- CCCS(=O)(=O)Nc1cccc([C@@H](O)CNCCOc2ccc3c(C)n[nH]c3c2)c1: 84
- Cc1n[nH]c2cc(OCCNC[C@H](O)c3cccc(NS(=O)(=O)c4ccccc4)c3)ccc12: 0
- Cc1n[nH]c2cc(OCCNC[C@H](O)c3cccc(NS(=O)(=O)C4CCCC4)c3)ccc12: 0
- Cc1n[nH]c2cc(OCCNC[C@H](O)c3cccc(NS(=O)(=O)C4CC4)c3)ccc12: 26

# Emax of "Cc1n[nH]c2cc(OCCNC[C@H](O)c3cccc(NS(C)(=O)=O)c3)ccc12" = 71

get_value(item= "CC(C)c1n[nH]c2cc(OCCNC[C@H](O)c3cccc(NS(C)(=O)=O)c3)ccc12" , readout=Emax) returns 9.1

Emax reported for this molecule "CS(=O)(=O)Nc1cccc([C@@H](O)CNCCOc2ccc3c(C4CCC4)n[nH]c3c2)c1" : 4

Form field Emax, entry "Cc1n[nH]c2cc(OCCNC[C@H](O)c3cccc(NS(=O)(=O)C(C)C)c3)ccc12" : 27

Lookup result for "CCc1n[nH]c2cc(OCCNC[C@H](O)c3cccc(NS(C)(=O)=O)c3)ccc12" ; measured Emax: 31

###

# target-or-test-system: Alpha-1A adrenergic receptor (Homo sapiens)
# Sequence (P35348 whole entry): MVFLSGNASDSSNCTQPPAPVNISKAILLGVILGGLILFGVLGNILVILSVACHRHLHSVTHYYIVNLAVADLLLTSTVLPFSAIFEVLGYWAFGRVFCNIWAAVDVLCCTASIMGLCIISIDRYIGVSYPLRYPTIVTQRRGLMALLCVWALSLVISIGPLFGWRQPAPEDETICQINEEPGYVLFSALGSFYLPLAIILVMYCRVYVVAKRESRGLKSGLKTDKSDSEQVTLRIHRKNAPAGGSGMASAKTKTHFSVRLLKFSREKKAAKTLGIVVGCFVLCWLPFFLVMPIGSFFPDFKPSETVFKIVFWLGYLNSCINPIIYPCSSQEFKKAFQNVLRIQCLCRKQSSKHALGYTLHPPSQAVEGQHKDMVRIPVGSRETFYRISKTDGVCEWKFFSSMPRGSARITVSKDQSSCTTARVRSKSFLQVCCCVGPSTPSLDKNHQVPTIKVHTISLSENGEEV
# assay-procedure: Agonist activity at recombinant human alpha1A adrenergic receptor expressed in HEK293 cells assessed as intercellular Ca mobilization by Fura-2AM dye-based fluorescence assay
Readings of EC50 for the listed molecules

Field EC50 (entry "CCCS(=O)(=O)Nc1cccc([C@@H](O)CNCCOc2ccc3c(C)n[nH]c3c2)c1" ) reads 163 nM

Value of EC50 reported for the molecule "Cc1n[nH]c2cc(OCCNC[C@H](O)c3cccc(NS(=O)(=O)C4CCC4)c3)ccc12" is > 10000 nM

// field: EC50; key: "Cc1n[nH]c2cc(OCCNC[C@H](O)c3cccc(NS(=O)(=O)C(C)C)c3)ccc12" ; value = 1760 nM

Noted for "Cc1n[nH]c2cc(OCCNC[C@H](O)c3cccc(NS(=O)(=O)C4CCCC4)c3)ccc12" : its EC50 reads > 10000 nM

Note to self: EC50 recorded for "Cc1n[nH]c2cc(OCCNC[C@H](O)c3cccc(NS(=O)(=O)C4CC4)c3)ccc12" was 1250 nM

What the record says about "Cc1n[nH]c2cc(OCCNC[C@H](O)c3cccc(NS(=O)(=O)c4ccccc4)c3)ccc12" : EC50 is > 10000 nM
